# target-desc: human NTPDase1 (Homo sapiens)
# test-description: NTPDase inhibition assay by capillary electrophoresis (CE), NTPDase1
# Assay type: biochemical
# measurement-conditions: CE method, ATP 320 μM, Km 17 μM, read-out: NTPDase1 Ki [μM] ± SEM
This section presents molecules with their documented Ki values.

Example entries and their recorded answers appear below.
INSERT INTO results (molecule, target_desc, result) VALUES
  ('CCOP(=O)(Cc1ccc(NC(=O)CNC(=O)[C@H]2O[C@@H](n3ccc(=O)[nH]c3=O)C(O)C2O)cc1)OCC (stereo in doubt)', 'human NTPDase1 (Homo sapiens)', '> 50 µM'),
  ('CCOP(=O)(CNC(=O)CCCNC(=O)[C@H]1O[C@@H](n2ccc(=O)[nH]c2=O)C(O)C1O)OCC (stereo in doubt)', 'human NTPDase1 (Homo sapiens)', '> 50 µM');

input: Give its Ki value. Item: CCOP(=O)(OCC)C(NC(=O)CCNC(=O)[C@H]1O[C@@H](n2ccc(=O)[nH]c2=O)C(O)C1O)P(=O)(OCC)OCC (stereo in doubt)
output: 325 µM

----------
Below, each entry is listed alongside its reported inhibition at 100 µM.
# target-desc: hP2Y2 (Homo sapiens)
# Sequence (P41231 whole entry): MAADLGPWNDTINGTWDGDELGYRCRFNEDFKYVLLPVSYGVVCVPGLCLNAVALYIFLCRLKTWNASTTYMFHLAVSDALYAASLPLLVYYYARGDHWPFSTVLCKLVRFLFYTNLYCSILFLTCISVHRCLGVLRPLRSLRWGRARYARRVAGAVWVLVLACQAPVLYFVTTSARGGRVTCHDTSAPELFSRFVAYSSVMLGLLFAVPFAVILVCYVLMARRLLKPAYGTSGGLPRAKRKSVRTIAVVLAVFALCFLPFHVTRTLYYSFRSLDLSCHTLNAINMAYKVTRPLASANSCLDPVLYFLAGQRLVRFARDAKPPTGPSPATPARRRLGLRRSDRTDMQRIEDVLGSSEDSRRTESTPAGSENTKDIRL
# test-description: Inhibition of UTP binding at hP2Y2
# measurement-conditions: read-out: hP2Y2 % inhibition of UTP binding at 100 μM, n = 3, mean ± SEM
The figure you give is taken to be in %; do not add the unit.

INSERT INTO assay_data (molecule, unit_abbrev, numeric_value) VALUES
  ('CCOP(=O)(OCC)C(NC(=O)CCNC(=O)[C@H]1O[C@@H](n2ccc(=O)[nH]c2=O)C(O)C1O)P(=O)(OCC)OCC (stereo in doubt)', '%', -12),
  ('CCOC(=O)C(CC(=O)O)NC(=O)CCCNC(=O)[C@H]1O[C@@H](n2ccc(=O)[nH]c2=O)[C@H](O)[C@@H]1O (stereo partly shown)', '%', -28),
  ('CCOP(=O)(OCC)C(NC(=O)CCCNC(=O)[C@H]1O[C@@H](n2ccc(=O)[nH]c2=O)C(O)C1O)P(=O)(OCC)OCC (stereo in doubt)', '%', -44);

input: Which value of inhibition at 100 µM has been reported for CCOP(=O)(OCC)C(NC(=O)CNC(=O)[C@H]1O[C@@H](n2ccc(=O)[nH]c2=O)C(O)C1O)P(=O)(OCC)OCC (stereo in doubt) in the records?
output: -38

----------
# target-desc: UniProtKB Q9H244
# Sequence (Q9H244 whole entry): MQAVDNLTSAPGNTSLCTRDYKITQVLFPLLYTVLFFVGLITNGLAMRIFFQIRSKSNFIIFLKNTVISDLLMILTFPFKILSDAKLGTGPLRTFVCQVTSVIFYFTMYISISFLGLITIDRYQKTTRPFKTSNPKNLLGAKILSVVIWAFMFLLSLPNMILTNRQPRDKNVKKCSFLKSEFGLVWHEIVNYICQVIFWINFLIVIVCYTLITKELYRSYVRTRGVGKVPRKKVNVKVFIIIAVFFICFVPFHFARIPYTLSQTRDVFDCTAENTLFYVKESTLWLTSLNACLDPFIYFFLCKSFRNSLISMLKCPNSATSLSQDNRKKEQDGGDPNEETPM
# test-description: Inhibition of [3H]PSB-0413 binding at hP2Y12
# measurement-conditions: mean ± SEM, read-out: hP2Y12 % Inhibition of [^3H]PSB-0413 Binding at 10 μM, n = 3
value-type: inhibition at 10 µM
Don't forget the unit after the value.

INSERT INTO assay_data (molecule, value_type, result) VALUES
  ('CCOP(=O)(OCC)C(NC(=O)CCCNC(=O)[C@H]1O[C@@H](n2ccc(=O)[nH]c2=O)C(O)C1O)P(=O)(OCC)OCC (stereo in doubt)', 'inhibition at 10 µM', '1%'),
  ('CCOP(=O)(OCC)C(NC(=O)CNC(=O)[C@H]1O[C@@H](n2ccc(=O)[nH]c2=O)C(O)C1O)P(=O)(OCC)OCC (stereo in doubt)', 'inhibition at 10 µM', '2%'),
  ('CCOP(=O)(Cc1ccc(NC(=O)CCCNC(=O)[C@H]2O[C@@H](n3ccc(=O)[nH]c3=O)C(O)C2O)cc1)OCC (stereo in doubt)', 'inhibition at 10 µM', '6%'),
  ('CCOP(=O)(Cc1ccc(NC(=O)CCCNC(=O)[C@H]2O[C@@H](n3cnc4c(N)ncnc43)C(O)C2O)cc1)OCC (stereo in doubt)', 'inhibition at 10 µM', '5%');

// moving on: another record for inhibition at 10 µM
input: Look at this molecule and give its reported inhibition at 10 µM. CCOP(=O)(Cc1ccc(NC(=O)CCNC(=O)[C@H]2O[C@@H](n3ccc(=O)[nH]c3=O)C(O)C2O)cc1)OCC (stereo in doubt)
output: 9%

----------
The reader will find reported Ki values listed item by item below.
# target-desc: human NTPDase1 (Homo sapiens, UniProt P49961)
# Sequence (P49961 1-510): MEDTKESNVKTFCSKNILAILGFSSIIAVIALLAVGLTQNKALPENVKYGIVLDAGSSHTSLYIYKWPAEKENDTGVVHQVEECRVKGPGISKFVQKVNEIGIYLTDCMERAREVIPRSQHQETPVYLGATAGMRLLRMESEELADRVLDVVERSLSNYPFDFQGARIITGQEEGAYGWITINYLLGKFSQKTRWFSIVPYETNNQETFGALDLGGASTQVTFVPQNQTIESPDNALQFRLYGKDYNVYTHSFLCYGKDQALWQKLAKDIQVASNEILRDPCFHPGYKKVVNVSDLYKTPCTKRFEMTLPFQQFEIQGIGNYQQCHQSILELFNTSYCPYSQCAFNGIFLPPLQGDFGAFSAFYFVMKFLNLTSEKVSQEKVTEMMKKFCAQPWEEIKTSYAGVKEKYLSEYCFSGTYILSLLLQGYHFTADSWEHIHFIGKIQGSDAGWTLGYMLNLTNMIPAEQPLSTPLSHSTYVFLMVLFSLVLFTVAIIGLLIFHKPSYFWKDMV
# test-description: NTPDase inhibition assay by capillary electrophoresis (CE), NTPDase1
# Format: biochemical
# measurement-conditions: CE method, ATP 320 μM, Km 17 μM, read-out: NTPDase1 Ki [μM] ± SEM

INSERT INTO results (compound, result) VALUES
  ('CCOP(=O)(OCC)C(NC(=O)CCCNC(=O)[C@H]1O[C@@H](n2cnc3c(N)ncnc32)C(O)C1O)P(=O)(OCC)OCC (stereo in doubt)', '> 50 µM'),
  ('CCOP(=O)(Cc1ccc(NC(=O)CCCNC(=O)[C@H]2O[C@@H](n3cnc4c(N)ncnc43)C(O)C2O)cc1)OCC (stereo in doubt)', '161 µM');

Now consider a different compound.
input: Given the entry CCOP(=O)(OCC)C(NC(=O)CCNC(=O)[C@H]1O[C@@H](n2cnc3c(N)ncnc32)C(O)C1O)P(=O)(OCC)OCC (stereo in doubt) , report its measured Ki.
output: > 50 µM

----------
# target-desc: human NTPDase1 (Homo sapiens)
# test-description: NTPDase inhibition assay by capillary electrophoresis (CE), NTPDase1
# Assay type: biochemical
# measurement-conditions: 1 mM compound, ATP 320 μM
Readings of inhibition at 1000 µM for the listed compounds
Report only the number, with the unit % understood.

Known inhibition at 1000 µM results, listed for orientation:
INSERT INTO measurements (compound, numeric_value) VALUES
  ('CCOP(=O)(CNC(=O)CCCNC(=O)[C@H]1O[C@@H](n2ccc(=O)[nH]c2=O)C(O)C1O)OCC (stereo in doubt)', 45),
  ('CCOP(=O)(CCNC(=O)CNC(=O)[C@H]1O[C@@H](n2ccc(=O)[nH]c2=O)C(O)C1O)OCC (stereo in doubt)', 0),
  ('CCOP(=O)(OCC)C(NC(=O)CCNC(=O)[C@H]1O[C@@H](n2cnc3c(N)ncnc32)C(O)C1O)P(=O)(OCC)OCC (stereo in doubt)', 0),
  ('CCOP(=O)(Cc1ccc(NC(=O)CNC(=O)[C@H]2O[C@@H](n3ccc(=O)[nH]c3=O)C(O)C2O)cc1)OCC (stereo in doubt)', 50),
  ('CCOP(=O)(CNC(=O)CCNC(=O)[C@H]1O[C@@H](n2ccc(=O)[nH]c2=O)[C@H](O)[C@@H]1O)OCC', 0);

input: What does the record list as inhibition at 1000 µM for CCOP(=O)(Cc1ccc(NC(=O)CNC(=O)[C@H]2O[C@@H](n3cnc4c(N)ncnc43)C(O)C2O)cc1)OCC (stereo in doubt) ?
output: 0

input: Query: inhibition at 1000 µM; subject: CCOP(=O)(OCC)C(NC(=O)CCCNC(=O)[C@H]1O[C@@H](n2cnc3c(N)ncnc32)C(O)C1O)P(=O)(OCC)OCC (stereo in doubt)
output: 0

----------
Overview of reported inhibition at 100 µM across a group of compounds:
# target-desc: UniProt Q63371
# Sequence (Q63371 whole entry): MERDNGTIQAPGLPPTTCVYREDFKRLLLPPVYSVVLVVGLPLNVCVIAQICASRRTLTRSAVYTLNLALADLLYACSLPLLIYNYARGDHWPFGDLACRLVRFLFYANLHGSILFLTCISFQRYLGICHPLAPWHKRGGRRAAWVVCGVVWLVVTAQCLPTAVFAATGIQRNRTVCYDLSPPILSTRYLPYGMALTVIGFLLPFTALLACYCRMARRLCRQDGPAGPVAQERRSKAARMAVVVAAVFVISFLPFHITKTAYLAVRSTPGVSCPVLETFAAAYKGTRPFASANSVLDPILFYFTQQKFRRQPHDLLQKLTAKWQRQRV
# test-description: Inhibition of UDP binding at rP2Y6
# measurement-conditions: read-out: rP2Y6 % inhibition of UDP binding at 100 μM, n = 3, mean ± SEM
Please give a number only; it is taken to be in %.

Here is how some compounds turned out for inhibition at 100 µM.
INSERT INTO assay_data (compound, target_desc, unit_abbrev, numeric_value) VALUES
  ('CCOP(=O)(OCC)C(NC(=O)CNC(=O)[C@H]1O[C@@H](n2ccc(=O)[nH]c2=O)C(O)C1O)P(=O)(OCC)OCC (stereo in doubt)', 'UniProt Q63371', '%', 8),
  ('CCOP(=O)(Cc1ccc(NC(=O)CCNC(=O)[C@H]2O[C@@H](n3ccc(=O)[nH]c3=O)C(O)C2O)cc1)OCC (stereo in doubt)', 'UniProt Q63371', '%', 7),
  ('CCOP(=O)(OCC)C(NC(=O)CCNC(=O)[C@H]1O[C@@H](n2ccc(=O)[nH]c2=O)C(O)C1O)P(=O)(OCC)OCC (stereo in doubt)', 'UniProt Q63371', '%', 14),
  ('CCOP(=O)(OCC)C(NC(=O)CCCNC(=O)[C@H]1O[C@@H](n2ccc(=O)[nH]c2=O)C(O)C1O)P(=O)(OCC)OCC (stereo in doubt)', 'UniProt Q63371', '%', 18),
  ('CCOP(=O)(OCC)C(NC(=O)CCNC(=O)[C@H]1O[C@@H](n2cnc3c(N)ncnc32)C(O)C1O)P(=O)(OCC)OCC (stereo in doubt)', 'UniProt Q63371', '%', 5);

Now consider the entry below.
input: Using the record for CCOP(=O)(CCNC(=O)CNC(=O)[C@H]1O[C@@H](n2ccc(=O)[nH]c2=O)C(O)C1O)OCC (stereo in doubt) , report its inhibition at 100 µM.
output: 9
